- System: TSSK3
- Assay Setup: Compound Concentration (nM):1000;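 further: KINOMEscan scanMAX binding as percent activity remaining versus control; lower means stronger binding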
Value Type: Percent Control (%)

Molecule: COc1ccccc1-c1cc(/C=C2\C(=O)Nc3ncc(Br)cc32)cc(Br)c1O [GW442130X]
Measured Result: 97
--
Molecule: COc1ccc2cc(-c3c(-c4ccncc4)nc(-c4ccc(S(C)(=O)=O)cc4C)n3C)ccc2c1
Measured Result: 57
--
Molecule: NS(=O)(=O)c1ccc(Nc2ncc(-c3ccccc3)o2)cc1 [GW572399X]
Measured Result: 100
--
Molecule: CC(C)COC(=O)c1ccc2c(c1)/C(=C/Nc1ccc(S(N)(=O)=O)cc1)C(=O)N2 [GW416981X]
Measured Result: 100
--
Molecule: CN(C)c1cc2c(Nc3ccc4c(cnn4Cc4ccccc4)c3)ncnc2cn1 [GW282974X]
Measured Result: 99
--
Molecule: NS(=O)(=O)c1ccc(N/N=C2\C(=O)Nc3ccc(C(=O)NCc4ccncc4)cc32)cc1 [GW300657X]
Measured Result: 89
--
Molecule: COc1ccc(COc2ccc(Cc3cnc(N)nc3N)cc2OC)cc1 [GW632580X]
Measured Result: 83
--
Molecule: COc1cc(N2CCN(C(C)C)CC2)ccc1Nc1nc(Nc2ccc(F)cc2C(=O)NC[C@@H](O)CO)c2cc[nH]c2n1 [GSK1392956A]
Measured Result: 83
--
Molecule: COC(=O)Nc1nc2ccc(Oc3ccc(NC(=O)Nc4cc(C(F)(F)F)ccc4F)cc3)cc2s1.Cl [GW693917A]
Measured Result: 82
--
Molecule: COc1ccc2[nH]c3c4[nH]c5ccc(OC)cc5c4c4c(c3c2c1)C(=O)NC4=O [GW296115X]
Measured Result: 89
--
Molecule: NS(=O)(=O)c1ccc(N/N=C2\C(=O)Nc3ccc(Cl)cc32)cc1 [GW280670X]
Measured Result: 100
--
Molecule: COc1cc2ncnc(Nc3ccc4c(cnn4Cc4ccccc4)c3)c2cc1OC.Cl [GW282449A]
Measured Result: 100
--
Molecule: Nc1ncnc2occ(-c3ccc(NC(=O)Nc4cc(C(F)(F)F)ccc4F)cc3)c12 [GW770249X]
Measured Result: 84
--
Molecule: CN(C)CCNC(=O)Nc1ccc(N(C)c2ccnc(Nc3ccc(CS(C)(=O)=O)cc3)n2)cc1.Cl [GW830900A]
Measured Result: 83
--
Molecule: COc1cccc(-c2c[nH]c3c(N/N=C/c4ccncc4)ncnc23)c1 [GW814408X]
Measured Result: 98
--
Molecule: NS(=O)(=O)c1ccc(N/N=C2\C(=O)Nc3ccc(C(=O)NCCc4c[nH]cn4)cc32)cc1 [GW300660X]
Measured Result: 100
--
Molecule: CCn1c(-c2nonc2N)nc2c(C#CC(C)(C)O)nc(OCCNC)cc21.Cl
Measured Result: 14

====

- System: KIT(L576P)
- Assay Setup: Compound Concentration (nM):1000
We begin with a simple list: items and their reported Percent Control.

Compound: COc1ccc2[nH]c3c4[nH]c5ccc(OC)cc5c4c4c(c3c2c1)C(=O)NC4=O [GW296115X]
Tested System: KIT(L576P)
Percent Control (%): 8.2
--
Compound: C[C@@H](Oc1cc(-n2cnc3ccc(OC4CCN(C)CC4)cc32)sc1C(N)=O)c1ccccc1Cl [GSK579289A]
Tested System: KIT(L576P)
Percent Control (%): 31
--
Compound: CC1=C(C(=O)Nc2ccc3[nH]ncc3c2)C(c2ccc3ccccc3c2)CC(=O)N1 (centres unmarked) [GSK270822A]
Tested System: KIT(L576P)
Percent Control (%): 71
--
Compound: NS(=O)(=O)c1ccc(Nc2ncc(-c3ccccc3)o2)cc1 [GW572399X]
Tested System: KIT(L576P)
Percent Control (%): 37
--
Compound: O=C1Nc2ccc(C(=O)c3ccco3)cc2C1=Cc1cc(Cl)c(O)c(Cl)c1 [GW406108X]
Tested System: KIT(L576P)
Percent Control (%): 38
